Data provenance: PubChem BioAssay (NCATS)

# Method notes: qHTS to identify inhibitors of the type 1 interferon - major histocompatibility complex class I in skeletal muscle: primary screen against the NCATS Mechanism Interrogation Plate v5.0 (MIPE) Libary (AID 1347411); also: nearly all actives have a fitted effect of over 65% in size
# Condition description: iHSKM cells + IFN-b, HiBiT-tagged MHC-I luminescence, 24 h; series mostly up to 45.8 µM
Inconclusive results are not listed. Active and inactive are the calls of the source. Calls follow the shape of the dose curve; as a rule, active = well fitted inhibition curve with a large enough effect; inconclusive = small, poorly fitted or top-dose-only effect; inactive = no such curve, though single readings can be large or run the other way.
The categories you may choose from are YES = active, NO = inactive

What did the test return for COC(=O)[C@H](c1ccccc1Cl)N1CCc2sccc2C1 ?
NO

Recorded call for CN(C(Cc1ccc(OS(=O)(=O)c2cccc3cnccc23)cc1)C(=O)N1CCN(c2ccccc2)CC1)S(=O)(=O)c1cccc2cnccc12 (stereo not given) ?
NO

Would you mind telling me which call this test gave CC1=C(CC(=O)O)c2cc(F)ccc2C1=Cc1ccc(S(C)=O)cc1 (stereo not given) ?
NO

For COc1cc2nccc(Oc3ccc(NC(=O)Nc4cc(C)on4)c(Cl)c3)c2cc1OC , what call appears in the results of this test?
YES

Could you kindly confirm the outcome this assay logged for CN1CC(=O)NC1=NC(=O)Nc1cccc(Cl)c1 ?
NO
